# target-under-test: Elastase (Sus scrofa, UniProt P00772)
# Sequence (P00772 27-266): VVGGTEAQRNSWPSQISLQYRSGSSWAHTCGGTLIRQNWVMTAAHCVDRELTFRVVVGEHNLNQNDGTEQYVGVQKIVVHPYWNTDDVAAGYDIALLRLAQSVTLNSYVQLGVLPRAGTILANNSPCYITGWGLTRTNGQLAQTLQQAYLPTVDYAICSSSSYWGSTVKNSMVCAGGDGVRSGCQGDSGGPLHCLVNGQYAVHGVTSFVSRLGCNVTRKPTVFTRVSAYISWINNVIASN
pIC50: −log10 of the molar value.
Consider the following compounds and their measured pIC50 readings.

# compound, pIC50
data = [
    ("CC=C1NC(=O)[C@@H](NC(=O)[C@@H](NC(=O)[C@@H]2CCCN2C(=O)CCC)[C@@H](C)O)[C@@H](C)OC(=O)[C@H](C(C)C)NC(=O)[C@H](Cc2ccc(O)cc2)N(C)C(=O)[C@H](Cc2ccccc2)N2C(=O)[C@H](CC[C@H]2O)NC1=O [Rivulariapeptolide 988, rivulariapeptolide 988]", 7.82),
    ("CCCC(=O)N1CCCC1C(=O)NC(C(=O)NC1C(=O)NC(CC(C)C)C(=O)NC2CCC(O)N(C2=O)C(Cc2ccccc2)C(=O)N(C)C(Cc2ccc(O)cc2)C(=O)NC(C(C)C)C(=O)OC1C)C(C)OC(=O)C1CCCN1C(=O)CCC (stereo not drawn) [Rivulariapeptolide 1185, rivulariapeptolide 1185]", 7.63),
    ("CC=C1NC(=O)[C@@H](NC(=O)[C@@H](NC(=O)[C@@H]2CCCN2C(=O)CCC)[C@@H](C)OC(=O)C2CCCN2C(=O)CCC)[C@@H](C)OC(=O)[C@H](C(C)C)NC(=O)[C@H](Cc2ccc(O)cc2)N(C)C(=O)[C@H](Cc2ccccc2)N2C(=O)[C@H](CC[C@H]2O)NC1=O (stereo partly drawn) [Rivulariapeptolide 1155, rivulariapeptolide 1155]", 8.31),
]

Measured values drawn from paper PMC9358669 for this set.
